- assay_system: anti-CD28 scFv (disulfide) (SEQ ID NO: 10)
- Sequence (as listed by the source): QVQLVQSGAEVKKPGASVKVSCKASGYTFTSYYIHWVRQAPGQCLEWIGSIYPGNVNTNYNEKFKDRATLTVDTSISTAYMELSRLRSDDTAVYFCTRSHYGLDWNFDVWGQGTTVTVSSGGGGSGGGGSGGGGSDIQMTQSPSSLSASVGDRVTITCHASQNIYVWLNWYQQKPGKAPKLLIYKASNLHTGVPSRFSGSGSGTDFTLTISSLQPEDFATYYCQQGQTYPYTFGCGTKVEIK
- protocol_text: anti-CD28 scFv (disulfide) binding to peptides, ELISA
- condition_description: Table 27
pEC50: −log10 of the molar value.

{"polymer_sequence": "WICDKSGSIMLCRA [Peptide-91]", "pEC50": "< 6.00"}
{"polymer_sequence": "PDCHTILFKPWCVR [Peptide-90]", "pEC50": "< 6.00"}
{"polymer_sequence": "YCAGHAWQYINKCL [Peptide-87]", "pEC50": 6.81}
{"polymer_sequence": "YWSCFQIPFTCFYF [Peptide-75]", "pEC50": "< 6.00"}
{"polymer_sequence": "FMCLPQNPHPLCFK [Peptide-77]", "pEC50": "< 6.00"}
{"polymer_sequence": "GCQYPWAFDAMSCP [Peptide-80]", "pEC50": "< 6.00"}
{"polymer_sequence": "YCAGHSPINIGKCL [Peptide-84]", "pEC50": "< 6.00"}

---

- Tested on: anti-CD28 scFv (SEQ ID NO: 9)
- Sequence (as listed by the source): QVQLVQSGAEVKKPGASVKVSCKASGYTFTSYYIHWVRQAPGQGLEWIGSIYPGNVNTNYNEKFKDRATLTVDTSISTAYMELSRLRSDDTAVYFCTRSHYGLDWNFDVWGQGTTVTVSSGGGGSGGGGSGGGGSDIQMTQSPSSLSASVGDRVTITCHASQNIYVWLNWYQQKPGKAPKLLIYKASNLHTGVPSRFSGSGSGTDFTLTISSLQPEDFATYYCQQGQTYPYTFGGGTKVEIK
- protocol_text: Kinetic binding of anti-CD28 scFv to peptides, bio-layer interferometry (Octet RED96)
- condition_description: Table 36; anti-CD28 scFv titrated 100-12.5 nM, 200 nM peptide loaded
Please map values of kdis to classes as shown: bin 1 (below 0.003 s⁻¹), bin 2 (0.003 s⁻¹ to below 0.004 s⁻¹), bin 3 (0.004 s⁻¹ or more)

{"polymer_sequence": "MDWCPIDLWNECFF [Peptide-31]", "classification": "bin 2"}
{"polymer_sequence": "MDWCPRDLWSECFF [Peptide-40]", "classification": "bin 2"}
{"polymer_sequence": "MDWCPRDMWDECFA [Peptide-42]", "classification": "bin 3"}
{"polymer_sequence": "MDWCPVHLWSVCFA [Peptide-50]", "classification": "bin 3"}
{"polymer_sequence": "MDWCPRHMWNYCFA [Peptide-46]", "classification": "bin 1"}
{"polymer_sequence": "MNWCPKDIWYLCFN [Peptide-34]", "classification": "bin 3"}
{"polymer_sequence": "MDWCPRERWVDCFF [Peptide-9]", "classification": "bin 3"}
{"polymer_sequence": "MDWCPLYLWNECFN [Peptide-36]", "classification": "bin 1"}
{"polymer_sequence": "MDWCPRSLWHECFA [Peptide-47]", "classification": "bin 1"}
{"polymer_sequence": "MDWCPRDLWHECFA [Peptide-38]", "classification": "bin 1"}
{"polymer_sequence": "MDWCPRDLWDLCFA [Peptide-37]", "classification": "bin 2"}
{"polymer_sequence": "MDWCPRYLWHVCFA [Peptide-48]", "classification": "bin 1"}
{"polymer_sequence": "MDWCPRFMWDECFN [Peptide-45]", "classification": "bin 2"}
{"polymer_sequence": "MHWCPVDLWYLCYN [Peptide-49]", "classification": "bin 1"}
{"polymer_sequence": "MDWCPRDLWHLCFS [Peptide-39]", "classification": "bin 1"}
{"polymer_sequence": "MDWCPIYLWSECFN [Peptide-33]", "classification": "bin 1"}
{"polymer_sequence": "MDWCPRDMWSVCFS [Peptide-44]", "classification": "bin 3"}
{"polymer_sequence": "MDWCPRDLWVHCFA [Peptide-41]", "classification": "bin 1"}
{"polymer_sequence": "MDWCPLHMWHECFS [Peptide-35]", "classification": "bin 3"}
{"polymer_sequence": "MDWCPRDMWSECFA [Peptide-43]", "classification": "bin 2"}

---

Reported log10 Kd is given for each of the following sequences.
- assay_system: anti-CD28 scFv (SEQ ID NO: 9)
- protocol_text: Kinetic binding of anti-CD28 scFv to peptides, bio-layer interferometry (Octet RED96)
- condition_description: Table 36; anti-CD28 scFv titrated 100-12.5 nM, 200 nM peptide loaded
property_label: log10 Kd (log10 of the value in nM)

{"polymer_sequence": "MDWCPRERWVDCFF [Peptide-9]", "log10 Kd": 2.44}
{"polymer_sequence": "MDWCPRDLWHLCFS [Peptide-39]", "log10 Kd": 1.72}
{"polymer_sequence": "MDWCPLHMWHECFS [Peptide-35]", "log10 Kd": 2.10}
{"polymer_sequence": "MDWCPVHLWSVCFA [Peptide-50]", "log10 Kd": 1.68}
{"polymer_sequence": "MDWCPRDMWDECFA [Peptide-42]", "log10 Kd": 2.18}
{"polymer_sequence": "MDWCPRDLWHECFA [Peptide-38]", "log10 Kd": 1.97}
{"polymer_sequence": "MDWCPRFMWDECFN [Peptide-45]", "log10 Kd": 2.13}
{"polymer_sequence": "MDWCPRDMWSVCFS [Peptide-44]", "log10 Kd": 2.57}
{"polymer_sequence": "MDWCPRHMWNYCFA [Peptide-46]", "log10 Kd": 1.55}
{"polymer_sequence": "MDWCPRDLWSECFF [Peptide-40]", "log10 Kd": 1.90}
{"polymer_sequence": "MDWCPRSLWHECFA [Peptide-47]", "log10 Kd": 1.71}
{"polymer_sequence": "MDWCPLYLWNECFN [Peptide-36]", "log10 Kd": 1.84}
{"polymer_sequence": "MDWCPIYLWSECFN [Peptide-33]", "log10 Kd": 1.72}
{"polymer_sequence": "MDWCPRDLWDLCFA [Peptide-37]", "log10 Kd": 1.99}

---

- assay_system: anti-CD28 Fab (SEQ ID NOs: 696, 697)
- Sequence (as listed by the source): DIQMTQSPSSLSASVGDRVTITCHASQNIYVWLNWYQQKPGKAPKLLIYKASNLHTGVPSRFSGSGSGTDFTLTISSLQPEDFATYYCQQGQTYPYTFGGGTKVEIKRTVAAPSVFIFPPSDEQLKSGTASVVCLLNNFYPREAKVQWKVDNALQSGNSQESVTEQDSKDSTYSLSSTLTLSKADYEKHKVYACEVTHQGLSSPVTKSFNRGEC
- Sequence (as listed by the source): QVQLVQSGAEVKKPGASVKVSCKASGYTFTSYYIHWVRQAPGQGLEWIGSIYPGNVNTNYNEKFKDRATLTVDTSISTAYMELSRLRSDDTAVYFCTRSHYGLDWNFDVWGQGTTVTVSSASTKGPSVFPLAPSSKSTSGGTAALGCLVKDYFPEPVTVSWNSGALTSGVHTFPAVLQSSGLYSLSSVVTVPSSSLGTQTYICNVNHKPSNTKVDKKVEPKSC
- protocol_text: anti-CD28 Fab binding to peptides, ELISA
- condition_description: Table 25; anti-CD28 Fab

{"polymer_sequence": "TCSAGAAYSWPACF [Peptide-146]", "units_label": "nM", "result_qualifier": "=", "EC50": 24.3}
{"polymer_sequence": "LCAAGASWPWPVCL [Peptide-138]", "units_label": "nM", "result_qualifier": "=", "EC50": 13.1}
{"polymer_sequence": "SCSAGAAYYWPWCL [Peptide-151]", "units_label": "nM", "result_qualifier": "=", "EC50": 112}
{"polymer_sequence": "SCAAGASYAWPYCL [Peptide-92]", "units_label": "nM", "result_qualifier": "=", "EC50": 18.9}
{"polymer_sequence": "TCAAGATYLWPTCL [Peptide-153]", "units_label": "nM", "result_qualifier": "=", "EC50": 20.5}
{"polymer_sequence": "TCSAGATWAWPLCF [Peptide-152]", "units_label": "nM", "result_qualifier": "=", "EC50": 15.6}
{"polymer_sequence": "TCSAGATWPWPICL [Peptide-137]", "units_label": "nM", "result_qualifier": "=", "EC50": 2.1}
{"polymer_sequence": "LCKPGVPYKWPTCL [Peptide-156]", "units_label": "nM", "result_qualifier": ">", "EC50": 1000}
{"polymer_sequence": "TCSAGATYEWPRCL [Peptide-149]", "units_label": "nM", "result_qualifier": "=", "EC50": 12.8}
{"polymer_sequence": "TCSAGATYTWPKCF [Peptide-141]", "units_label": "nM", "result_qualifier": "=", "EC50": 15.7}
{"polymer_sequence": "TCSAGAAYPWPLCL [Peptide-145]", "units_label": "nM", "result_qualifier": "=", "EC50": 4.4}
{"polymer_sequence": "LCAAGATYPWPTCL [Peptide-147]", "units_label": "nM", "result_qualifier": "=", "EC50": 25.8}
{"polymer_sequence": "LCAAGATYPWPLCL [Peptide-144]", "units_label": "nM", "result_qualifier": "=", "EC50": 5.6}
{"polymer_sequence": "TCAAGAAWGWPLCF [Peptide-143]", "units_label": "nM", "result_qualifier": "=", "EC50": 5.6}
{"polymer_sequence": "TCAAGAAWPWPQCL [Peptide-140]", "units_label": "nM", "result_qualifier": "=", "EC50": 2.6}
{"polymer_sequence": "SCSAGAHYPWPQCF [Peptide-148]", "units_label": "nM", "result_qualifier": "=", "EC50": 19}
{"polymer_sequence": "TCAAGATWSWPACF [Peptide-142]", "units_label": "nM", "result_qualifier": "=", "EC50": 4.5}
{"polymer_sequence": "TCAAGAHYPWPACL [Peptide-154]", "units_label": "nM", "result_qualifier": "=", "EC50": 4.2}
{"polymer_sequence": "TCSAGAHYPWPICL [Peptide-150]", "units_label": "nM", "result_qualifier": "=", "EC50": 10.6}
{"polymer_sequence": "TCSAGASYPWPLCL [Peptide-139]", "units_label": "nM", "result_qualifier": "=", "EC50": 5.3}
{"polymer_sequence": "LCAAGFTYPWPLCL [Peptide-155]", "units_label": "nM", "result_qualifier": ">", "EC50": 1000}
